Entries and their normalized RNA/DNA level without ligand (log10)
B1: library; a variant is named by its letters at N, in order (parent)
chain: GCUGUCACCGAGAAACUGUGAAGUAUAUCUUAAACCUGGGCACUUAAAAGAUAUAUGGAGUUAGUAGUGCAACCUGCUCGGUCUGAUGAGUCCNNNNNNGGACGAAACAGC

- Variants of: B1
- assay.comment: normalized RNA/DNA level without ligand (relative to sTRSVctl = 100) (log10 (% of sTRSVctl)); HEK293T; ligand: cyclic di-GMP (c-di-GMP-II aptamer); higher = less ribozyme self-cleavage, higher mRNA level
- cond: reporter: mCherry (pCS4076), ligand present: no
outcome.measure: normalized RNA/DNA level without ligand (log10)

1. GCUGUCACCGAGAAACUGUGAAGUAUAUCUUAAACCUGGGCACUUAAAAGAUAUAUGGAGUUAGUAGUGCAACCUGCUCGGUCUGAUGAGUCCCAAGAUGGACGAAACAGC [CAAGAU] = 1.6
2. GCUGUCACCGAGAAACUGUGAAGUAUAUCUUAAACCUGGGCACUUAAAAGAUAUAUGGAGUUAGUAGUGCAACCUGCUCGGUCUGAUGAGUCCCUAAGCGGACGAAACAGC [CUAAGC] = 1.75
3. GCUGUCACCGAGAAACUGUGAAGUAUAUCUUAAACCUGGGCACUUAAAAGAUAUAUGGAGUUAGUAGUGCAACCUGCUCGGUCUGAUGAGUCCCCACACGGACGAAACAGC [CCACAC] = 1.65
4. GCUGUCACCGAGAAACUGUGAAGUAUAUCUUAAACCUGGGCACUUAAAAGAUAUAUGGAGUUAGUAGUGCAACCUGCUCGGUCUGAUGAGUCCUCCUCCGGACGAAACAGC [UCCUCC] = 1.81
5. GCUGUCACCGAGAAACUGUGAAGUAUAUCUUAAACCUGGGCACUUAAAAGAUAUAUGGAGUUAGUAGUGCAACCUGCUCGGUCUGAUGAGUCCCGCUUGGGACGAAACAGC [CGCUUG] = 1.73
6. GCUGUCACCGAGAAACUGUGAAGUAUAUCUUAAACCUGGGCACUUAAAAGAUAUAUGGAGUUAGUAGUGCAACCUGCUCGGUCUGAUGAGUCCCGACGUGGACGAAACAGC [CGACGU] = 1.66
7. GCUGUCACCGAGAAACUGUGAAGUAUAUCUUAAACCUGGGCACUUAAAAGAUAUAUGGAGUUAGUAGUGCAACCUGCUCGGUCUGAUGAGUCCCGUGCUGGACGAAACAGC [CGUGCU] = 1.64
8. GCUGUCACCGAGAAACUGUGAAGUAUAUCUUAAACCUGGGCACUUAAAAGAUAUAUGGAGUUAGUAGUGCAACCUGCUCGGUCUGAUGAGUCCCGUUCUGGACGAAACAGC [CGUUCU] = 1.51
9. GCUGUCACCGAGAAACUGUGAAGUAUAUCUUAAACCUGGGCACUUAAAAGAUAUAUGGAGUUAGUAGUGCAACCUGCUCGGUCUGAUGAGUCCGGGACCGGACGAAACAGC [GGGACC] = 1.84
10. GCUGUCACCGAGAAACUGUGAAGUAUAUCUUAAACCUGGGCACUUAAAAGAUAUAUGGAGUUAGUAGUGCAACCUGCUCGGUCUGAUGAGUCCGCGGAUGGACGAAACAGC [GCGGAU] = 1.43
11. GCUGUCACCGAGAAACUGUGAAGUAUAUCUUAAACCUGGGCACUUAAAAGAUAUAUGGAGUUAGUAGUGCAACCUGCUCGGUCUGAUGAGUCCAACAAUGGACGAAACAGC [AACAAU] = 1.59
12. GCUGUCACCGAGAAACUGUGAAGUAUAUCUUAAACCUGGGCACUUAAAAGAUAUAUGGAGUUAGUAGUGCAACCUGCUCGGUCUGAUGAGUCCAAAACCGGACGAAACAGC [AAAACC] = 1.68
13. GCUGUCACCGAGAAACUGUGAAGUAUAUCUUAAACCUGGGCACUUAAAAGAUAUAUGGAGUUAGUAGUGCAACCUGCUCGGUCUGAUGAGUCCCAGCGAGGACGAAACAGC [CAGCGA] = 1.49
14. GCUGUCACCGAGAAACUGUGAAGUAUAUCUUAAACCUGGGCACUUAAAAGAUAUAUGGAGUUAGUAGUGCAACCUGCUCGGUCUGAUGAGUCCUAAAGUGGACGAAACAGC [UAAAGU] = 1.54
